# experiment_summary: Protonation constants by (traditional) potentiometric titration (TPT), SUPERQUAD
# test_context: overall protonation, zero level H2L2−, 0.1 M NaNO3, 25 °C
Decision: logβx ± 3σ, x = 3 (H5L+) compared against 9; not below it gives YES, below it gives NO.

compound	group_label
NCCCCC(O)(P(=O)(O)O)P(=O)(O)O	YES

### Prompt Check if logβx ± 3σ, x = 3 (H5L+) >= 9 (inclusive). Item: NCCCCCCCC(O)(P(=O)(O)O)P(=O)(O)O
### Response YES

### Prompt I'd appreciate it if you could say whether NCCC(O)(P(=O)(O)O)P(=O)(O)O has logβx ± 3σ, x = 3 (H5L+) at least equal to 9.
### Response NO

### Prompt Dear colleague, could you confirm whether NCCCCCC(O)(P(=O)(O)O)P(=O)(O)O [Compound 4, reference compound] has logβx ± 3σ, x = 3 (H5L+) at or above 9?
### Response YES
